molecular target: CD3; assay: Octet, crude lysate
Sequence (P07766 23-126): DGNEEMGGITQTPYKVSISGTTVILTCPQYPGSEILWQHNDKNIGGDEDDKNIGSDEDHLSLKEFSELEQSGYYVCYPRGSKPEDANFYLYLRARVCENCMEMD
OBSERVABLE: Kd (µM)

binder="AC3420 (bispecific antibody, V domains shown) VH: EVQLLESGGGIVQPGGSLKLSCAASGFTFNTYAMNWVRQAPGKGLEWVARIRSKYNNYATYGADSVKDRFTISRDDSKNTVYLQMNNLKTEDTAVYYCVRHENFGNSYVSWFAHWGQGTLVTVSS VL: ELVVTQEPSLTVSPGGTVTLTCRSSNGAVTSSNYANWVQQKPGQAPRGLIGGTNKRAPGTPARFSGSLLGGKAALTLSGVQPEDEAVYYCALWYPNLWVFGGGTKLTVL" observable=Kd numeric_value=0.0083
binder="AC3413 (bispecific antibody, V domains shown) VH: EVQLLESGGGIVQPGGSLKLSCAASGFTFNTYAMNWVRQAPGKGLEWVARIRSKYNNYTTYYADSVKDRFTISRDDSKNTVYLQMNNLKTEDTAVYYCVRHENFGNSYVSWFAHWGQGTLVTVSS VL: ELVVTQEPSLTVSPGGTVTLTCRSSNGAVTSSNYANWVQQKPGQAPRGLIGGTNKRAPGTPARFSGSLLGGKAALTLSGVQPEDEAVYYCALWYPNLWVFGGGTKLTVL" observable=Kd numeric_value=0.0107
binder="AC3373 (bispecific antibody, V domains shown) VH: EVQLLESGGGIVQPGGSLKLSCAASGFTFNTYAMNWVRQAPGKGLEWTARIRSKYNNYATYYADSVKDRFTISRDDSKNTVYLQMNNLKTEDTAVYYCVRHENFGNSYVSWFAHWGQGTLVTVSS VL: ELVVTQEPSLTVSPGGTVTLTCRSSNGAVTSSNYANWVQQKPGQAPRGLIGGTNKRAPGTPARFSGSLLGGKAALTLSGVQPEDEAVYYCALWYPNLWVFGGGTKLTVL" observable=Kd numeric_value=0.0057
binder="AC3402 (bispecific antibody, V domains shown) VH: EVQLLESGGGIVQPGGSLKLSCAASGFTFNTYAMNWVRQAPGKGLEWVARIRSKPNNYATYYADSVKDRFTISRDDSKNTVYLQMNNLKTEDTAVYYCVRHENFGNSYVSWFAHWGQGTLVTVSS VL: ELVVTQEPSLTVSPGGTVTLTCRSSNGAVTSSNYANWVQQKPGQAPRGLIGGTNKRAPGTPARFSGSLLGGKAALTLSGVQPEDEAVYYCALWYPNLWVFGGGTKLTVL" observable=Kd numeric_value=0.0331
binder="AC3426 (bispecific antibody, V domains shown) VH: EVQLLESGGGIVQPGGSLKLSCAASGFTFNTYAMNWVRQAPGKGLEWVARIRSKYNNYATYYADSVKDRFTISRDDSKNTVGLQMNNLKTEDTAVYYCVRHENFGNSYVSWFAHWGQGTLVTVSS VL: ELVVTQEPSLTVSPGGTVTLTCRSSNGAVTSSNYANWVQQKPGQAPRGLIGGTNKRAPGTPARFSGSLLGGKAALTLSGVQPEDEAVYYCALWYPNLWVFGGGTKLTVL" observable=Kd numeric_value=0.121
binder="AC3370 (bispecific antibody, V domains shown) VH: EVQLLESGGGIVQPGGSLKLSCAASGFTFNTYAMNWVRQAPGKGLEWEARIRSKYNNYATYYADSVKDRFTISRDDSKNTVYLQMNNLKTEDTAVYYCVRHENFGNSYVSWFAHWGQGTLVTVSS VL: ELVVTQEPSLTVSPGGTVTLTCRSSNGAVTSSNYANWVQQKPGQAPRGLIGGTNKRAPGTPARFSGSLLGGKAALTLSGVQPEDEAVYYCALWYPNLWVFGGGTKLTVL" observable=Kd numeric_value=0.165
binder="AC3372 (bispecific antibody, V domains shown) VH: EVQLLESGGGIVQPGGSLKLSCAASGFTFNTYAMNWVRQAPGKGLEWSARIRSKYNNYATYYADSVKDRFTISRDDSKNTVYLQMNNLKTEDTAVYYCVRHENFGNSYVSWFAHWGQGTLVTVSS VL: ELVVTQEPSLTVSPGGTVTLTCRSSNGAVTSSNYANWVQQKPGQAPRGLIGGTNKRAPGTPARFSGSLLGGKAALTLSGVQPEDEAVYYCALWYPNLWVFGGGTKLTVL" observable=Kd numeric_value=0.0112
binder="AC3430 (bispecific antibody, V domains shown) VH: EVQLLESGGGIVQPGGSLKLSCAASGFTFNTYAMNWVRQAPGKGLEWVARIRSKYNNYATYYADSVKDRFTISRDDSKNTVYLQMNSLKTEDTAVYYCVRHENFGNSYVSWFAHWGQGTLVTVSS VL: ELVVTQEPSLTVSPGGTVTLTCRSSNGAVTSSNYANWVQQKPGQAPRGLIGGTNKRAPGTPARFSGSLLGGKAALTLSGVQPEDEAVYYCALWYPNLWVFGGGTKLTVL" observable=Kd numeric_value=0.0048
binder="AC3367 (bispecific antibody, V domains shown) VH: EVQLLESGGGIVQPGGSLKLSCAASGFTFNTYAMNWVRQAPGKGLEDVARIRSKYNNYATYYADSVKDRFTISRDDSKNTVYLQMNNLKTEDTAVYYCVRHENFGNSYVSWFAHWGQGTLVTVSS VL: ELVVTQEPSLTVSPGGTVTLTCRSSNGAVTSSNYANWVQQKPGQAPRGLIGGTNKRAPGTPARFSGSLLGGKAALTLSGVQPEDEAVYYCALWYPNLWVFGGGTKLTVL" observable=Kd numeric_value=0.0402
binder="AC3383 (bispecific antibody, V domains shown) VH: EVQLLESGGGIVQPGGSLKLSCAASGFTFNTYAMNWVRQAPGKGLEWVARARSKYNNYATYYADSVKDRFTISRDDSKNTVYLQMNNLKTEDTAVYYCVRHENFGNSYVSWFAHWGQGTLVTVSS VL: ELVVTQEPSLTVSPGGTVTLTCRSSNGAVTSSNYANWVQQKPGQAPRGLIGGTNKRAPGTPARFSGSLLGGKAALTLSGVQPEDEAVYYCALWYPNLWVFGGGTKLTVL" observable=Kd numeric_value=1.18

From: patent US20240400696A1
